B1: library; numbered along this chain (parent)
chain: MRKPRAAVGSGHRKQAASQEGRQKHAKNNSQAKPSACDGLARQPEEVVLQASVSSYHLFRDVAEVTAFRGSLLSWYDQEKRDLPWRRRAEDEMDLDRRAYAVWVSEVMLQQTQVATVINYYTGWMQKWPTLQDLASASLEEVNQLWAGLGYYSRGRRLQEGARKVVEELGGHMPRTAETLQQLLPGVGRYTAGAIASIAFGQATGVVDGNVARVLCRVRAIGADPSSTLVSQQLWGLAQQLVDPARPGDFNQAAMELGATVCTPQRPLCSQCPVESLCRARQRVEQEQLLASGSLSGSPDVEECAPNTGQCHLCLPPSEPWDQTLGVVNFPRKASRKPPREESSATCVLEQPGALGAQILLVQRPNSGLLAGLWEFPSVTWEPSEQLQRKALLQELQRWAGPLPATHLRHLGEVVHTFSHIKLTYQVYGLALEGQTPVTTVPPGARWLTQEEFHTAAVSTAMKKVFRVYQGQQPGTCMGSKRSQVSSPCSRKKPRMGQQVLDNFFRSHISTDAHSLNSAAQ

# Variants of: B1
# PROTOCOL: 8OG:A repair function score (normalized; synonymous = 0, nonsense = -1) (normalized log-likelihood score); higher = more repair activity (WT-like);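 note: cells sorted at 72 h after reporter transfection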
# CONDITION LABEL: with 8OG:A DNA repair reporter (GFP) in HEK-293 MUTYH KO cells
Can you tell me 8OG:A repair function score for the items I'm about to list?
Answers are plain numbers.

Could you tell me 8OG:A repair function score for each of these variants? They are listed below.
1. A305S
2. S276V
3. V441D

[-0.019, -0.0409, -0.144]

Could you tell me 8OG:A repair function score for each of these variants? They are listed below.
1. R283C
2. Q233D
3. A238S
4. G372M
5. D224K

1: -0.167; 2: -0.318; 3: -0.0308; 4: -0.639; 5: -0.928

Could you tell me 8OG:A repair function score for each of these variants? They are listed below.
1. W75Y
2. E64W
3. E90H

-0.448
-0.219
-0.0294
